Hey, just so you know, these numbers are from the supplement of paper PMC9732359.

test: protein stability index of a GFP-peptide fusion (yeast GPS) (PSI 1-4); higher = more stable; sorted into four equal gates, so the index is relative within each strain; settings: san1∆
recorded.endpoint: protein stability index

>>> measured_number("KTKKEKGPNEEEKKKEH [RPN2]")
3.49
>>> measured_number("FLPFNNSASNNGNLTSN [SWI1]")
3.07
>>> measured_number("LRLDGHTKSDERSELLR [SNF2]")
3.38
>>> measured_number("TLVHTRVKIANTSAATV [SSN2]")
2.32
>>> measured_number("PFMLQWGIPLIKELRSK [FAS1]")
1.44
>>> measured_number("VTLSQLVSVTSTLQHFQ [MED8]")
1.96
>>> measured_number("KRVDFSGRTVISPDPNL [RPO31]")
3.2
>>> measured_number("HLERNRKDKDAKFRLIL [RPS13]")
3.38
>>> measured_number("PQGRQSTTFADCPVVPA [RPC40]")
2.49
>>> measured_number("DDFEEDEDEEDDDDYNA [RPC31]")
3.2
>>> measured_number("TIPILESDSKATLQSNE [DSN1]")
2.36
>>> measured_number("DFTQEDELRKQELISKA [ISW2]")
3.03
>>> measured_number("LFYFDSSFRPCPLSQQF [BRR2]")
2.68
>>> measured_number("KLVRDAFALAKEKAPTI [RPT5]")
2.94
>>> measured_number("VPLSDNAIIEANLGKYG [RPL7A]")
2.45
>>> measured_number("SNETIGEIQLLFQRQKL [IRR1]")
3.14
>>> measured_number("LNAINNAEKTGKRQVLL [RPS22B]")
3.26
>>> measured_number("YKLTNDEEGIFSRFVDQ [YCG1]")
3
>>> measured_number("IHFREHQSELIIKQTVH [YMR129W/POM152]")
2.48
>>> measured_number("ETQYFWKLLNQLVLRGL [YJR042W/NUP85]")
1.26
>>> measured_number("NCIRILADKLENYEGKQ [YIL149C/MLP2]")
3.22
>>> measured_number("AVFKIVLQPLLPRELPK [SNU114]")
2.05
>>> measured_number("RELLNPRYTYHTIFSDV [YML031W/NDC1]")
2.71
>>> measured_number("SAKMILLSDPTITIKSY [PRP8]")
3.1
>>> measured_number("GTGNNNKLNFIVDDKQE [DIB1]")
1.57
>>> measured_number("LEDDSLLSYPIKLDRWL [RPN12]")
2.99
>>> measured_number("YVKEKLEAVNSMIEKGG [RPN7]")
2.77
>>> measured_number("KLNQKYDIVKFLTVSKL [GRR1]")
2.06
>>> measured_number("PGNGKHASENISLSFSR [SIR4]")
2.97
>>> measured_number("QMDQQLQYTALTGSPNN [ARP7]")
3.33

* * *

Listing of recorded protein stability index by entry.
experiment: protein stability index of a GFP-peptide fusion (yeast GPS) (PSI 1-4); higher = more stable; sorted into four equal gates, so the index is relative within each strain; settings: pdr5∆
recorded.endpoint: protein stability index

>>> measured_number("RSIMKNRSVVYFKLDLT [RRI2]")
1.58
>>> measured_number("MKTKTINAQGEEIVVVA [PRP8]")
1.92
>>> measured_number("NRVGLTLDNIDDINKAK [ARP9]")
2.93
>>> measured_number("TKWGLINYQVDSKLLPK [SWI3]")
2.41
>>> measured_number("SKVVIDSIIDNIVKLCF [IRR1]")
2.32
>>> measured_number("SLHRQQQQQQQQVPPLP [DLS1]")
2.81
>>> measured_number("NKPAIKEDSTIQDSNGD [SWI3]")
3.05
>>> measured_number("MDVDSVKTTLVSLTQLR [RPC82]")
1.81

* * *

experiment: protein stability index of a GFP-peptide fusion (yeast GPS) (PSI 1-4); higher = more stable; sorted into four equal gates, so the index is relative within each strain; details: pdr5∆
Reported protein stability index by item:
recorded.endpoint: protein stability index

>>> measured_number("HSQFMKDLKDDSIYTKP [YJL039C/NUP192]")
3.02
>>> measured_number("FAVIYLCDIDEVSDFDE [DIB1]")
2.16
>>> measured_number("DSDMLTKSHNTVQSWLC [NUT1]")
2.63
>>> measured_number("LNRIKKYLLTQRVFKPV [PRP8]")
2.25
>>> measured_number("VTQSNILSQQFDKIIKI [SRB8]")
2.96
>>> measured_number("FEIIDEASKKSAVKPRP [FAS1]")
3.28
>>> measured_number("ISEINFLHESSFDSIDH [CSI1]")
2.95
>>> measured_number("KVFVPPKSKSLPNEMSQ [RPO31]")
3.14
>>> measured_number("AKEKERMLEEAIDHLKA [YIL149C/MLP2]")
3.12
>>> measured_number("SHILNSHSLALNEITNS [DSN1]")
2.41
>>> measured_number("PIFSFGKQEENGDEGDD [YOR098C/NUP1]")
3.65
>>> measured_number("RNVTKGDIVRMLETAGF [SMC3]")
3.07
>>> measured_number("AMREVNDEKRVKEEYDI [YIL149C/MLP2]")
2.57
>>> measured_number("YPDLCSIYDKWTDPNLK [RPN1]")
2.66
>>> measured_number("SCTLLERGHPKDNARIY [POP1]")
2.15
>>> measured_number("HTSPHQPSDVKPTSHKQ [SIR4]")
3.08
>>> measured_number("LRNKIAGYTTHLMKRIQ [RPS17A]")
3.19
>>> measured_number("EYEKRNHGGSLGKYDLT [SRP68]")
2.56
>>> measured_number("AVEQRKKEKLDSGEVDA [DPB4]")
3.21
>>> measured_number("EILNECHDELKALPMLE [MED4]")
2.95
>>> measured_number("QLFNWCLMRSLHKLELK [DSN1]")
1.26
>>> measured_number("GSIPVDQVVVRGIDTLQ [RPB3]")
2.02
>>> measured_number("AAPAATSAASGDAAPAE [RPP0]")
2.38
>>> measured_number("TLVNKSTGLKSASDALK [RPS1A]")
3.1
>>> measured_number("LAYRNYWTQYLGLFIHK [YJL039C/NUP192]")
1.56
>>> measured_number("TRIQYVDFACCTNLTNR [GRR1]")
2.6
>>> measured_number("HNAGPVAGAGAASGAAA [RPP1B]")
2.24
>>> measured_number("SWYLNTFDGIRMSSEEV [GRR1]")
2.1
>>> measured_number("SDNIASLQYINIRGNTI [SMD1]")
3.22
>>> measured_number("QVIKNEVCAKMPNIELY [SSN2]")
2.81

* * *

Recorded protein stability index for the following sequences
test: protein stability index of a GFP-peptide fusion (yeast GPS) (PSI 1-4); higher = more stable; sorted into four equal gates, so the index is relative within each strain; details: pdr5∆
recorded.endpoint: protein stability index

>>> measured_number("RTMDDIKDSVREVGTKF [ECM29]")
3.47
>>> measured_number("ASSPIILEEGSSGMGAF [RPN10]")
3.04
>>> measured_number("TGGLFGAKPAGSTGGLG [YGL172W/NUP49]")
3.42
>>> measured_number("NAARKAEASGEAADEAD [RPS9A]")
3.03
>>> measured_number("QNHNSKSTDNSAIRQVF [IRR1]")
2.8
>>> measured_number("TKGDTSKATGAPSANQG [RTT102]")
3.35
>>> measured_number("AGNSQITSGGFLLKAYI [SRB5]")
2.53
>>> measured_number("FATTKAECISLICSIGL [ECM29]")
1.97
>>> measured_number("GSQILSGVMDKSVLGDG [RPO31]")
3.28
>>> measured_number("SRIRVKIEGCISQVSSI [RPB7]")
1.75
>>> measured_number("SLQQMQHLQQLKMQQQQ [GAL11]")
2.09
>>> measured_number("EYLKRVSVPVSGQKTNR [SIR3]")
2.52
>>> measured_number("PLKYAPHLPFSKSENPV [SWI3]")
2.95
>>> measured_number("MGSRRYDSRTTIFSPEG [PRE9]")
3.01
>>> measured_number("EILVEESGLRPVSLLNS [PCI8]")
3.21
>>> measured_number("AVVVRGRYAGKKVVIVK [RPL27A]")
3.38
>>> measured_number("GSEIAISSLGYRSHIFA [SWI3]")
2.27
>>> measured_number("NDPNAAVNMTQNIMTLP [MED6]")
2.95
>>> measured_number("QAYQFLNTFGSKICLSH [ITC1]")
1.33
>>> measured_number("QIEKKEIKKMIITNINA [YCG1]")
2.75
>>> measured_number("NAIFQMESEEVPLTKRY [PCI8]")
2.82
>>> measured_number("QIISGNRVPDGFQDRSL [RPO31]")
3.13
>>> measured_number("VTEANIIKLVEGLANDP [RPS12]")
2.76
>>> measured_number("TLVHTRVKIANTSAATV [SSN2]")
2.31
>>> measured_number("YTANTSAQSIASAKSVR [YAR002W/NUP60]")
2.93
>>> measured_number("KLQENRTLLTEEIEPKL [SMC2]")
3.29
>>> measured_number("PLSNEVFEISENNSDSN [SWI1]")
3.04
>>> measured_number("EIKLLEISCKQWEISNM [CSI1]")
3.44
>>> measured_number("EEEQDTGESEESSSEDD [IRR1]")
3.44
>>> measured_number("QGITRNVVNYLSINKNF [RPC17]")
1.62
